Known DC50 of a selection of compounds
testedSystem: IKZF1 (Homo sapiens, UniProt Q13422+Q96SW2)
Sequence (Q13422 whole entry): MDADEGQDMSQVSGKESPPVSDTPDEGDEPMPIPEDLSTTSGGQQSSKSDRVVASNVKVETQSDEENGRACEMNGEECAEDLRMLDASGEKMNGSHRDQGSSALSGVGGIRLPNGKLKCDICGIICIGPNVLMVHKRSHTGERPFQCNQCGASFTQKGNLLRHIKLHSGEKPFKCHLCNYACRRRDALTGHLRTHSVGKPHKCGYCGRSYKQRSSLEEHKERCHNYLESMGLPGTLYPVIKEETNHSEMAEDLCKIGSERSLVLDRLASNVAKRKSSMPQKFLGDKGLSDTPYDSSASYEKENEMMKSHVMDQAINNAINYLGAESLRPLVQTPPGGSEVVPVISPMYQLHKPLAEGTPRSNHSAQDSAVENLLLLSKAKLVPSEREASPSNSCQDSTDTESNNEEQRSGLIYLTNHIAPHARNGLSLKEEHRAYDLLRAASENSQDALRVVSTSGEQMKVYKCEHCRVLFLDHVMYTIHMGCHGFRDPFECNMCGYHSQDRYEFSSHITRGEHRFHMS
Sequence (Q96SW2 whole entry): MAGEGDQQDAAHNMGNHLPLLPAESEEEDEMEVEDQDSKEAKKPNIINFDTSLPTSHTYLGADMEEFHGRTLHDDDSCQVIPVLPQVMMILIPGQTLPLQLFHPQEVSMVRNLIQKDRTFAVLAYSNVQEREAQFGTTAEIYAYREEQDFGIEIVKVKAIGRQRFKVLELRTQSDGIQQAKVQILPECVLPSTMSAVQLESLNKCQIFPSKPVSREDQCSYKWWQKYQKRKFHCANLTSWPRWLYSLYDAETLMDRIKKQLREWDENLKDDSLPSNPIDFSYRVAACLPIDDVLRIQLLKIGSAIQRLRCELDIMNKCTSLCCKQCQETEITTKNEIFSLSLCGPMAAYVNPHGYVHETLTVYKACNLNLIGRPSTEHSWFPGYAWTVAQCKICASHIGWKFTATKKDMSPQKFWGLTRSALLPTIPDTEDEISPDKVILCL
Sequence (Q16531 whole entry partner): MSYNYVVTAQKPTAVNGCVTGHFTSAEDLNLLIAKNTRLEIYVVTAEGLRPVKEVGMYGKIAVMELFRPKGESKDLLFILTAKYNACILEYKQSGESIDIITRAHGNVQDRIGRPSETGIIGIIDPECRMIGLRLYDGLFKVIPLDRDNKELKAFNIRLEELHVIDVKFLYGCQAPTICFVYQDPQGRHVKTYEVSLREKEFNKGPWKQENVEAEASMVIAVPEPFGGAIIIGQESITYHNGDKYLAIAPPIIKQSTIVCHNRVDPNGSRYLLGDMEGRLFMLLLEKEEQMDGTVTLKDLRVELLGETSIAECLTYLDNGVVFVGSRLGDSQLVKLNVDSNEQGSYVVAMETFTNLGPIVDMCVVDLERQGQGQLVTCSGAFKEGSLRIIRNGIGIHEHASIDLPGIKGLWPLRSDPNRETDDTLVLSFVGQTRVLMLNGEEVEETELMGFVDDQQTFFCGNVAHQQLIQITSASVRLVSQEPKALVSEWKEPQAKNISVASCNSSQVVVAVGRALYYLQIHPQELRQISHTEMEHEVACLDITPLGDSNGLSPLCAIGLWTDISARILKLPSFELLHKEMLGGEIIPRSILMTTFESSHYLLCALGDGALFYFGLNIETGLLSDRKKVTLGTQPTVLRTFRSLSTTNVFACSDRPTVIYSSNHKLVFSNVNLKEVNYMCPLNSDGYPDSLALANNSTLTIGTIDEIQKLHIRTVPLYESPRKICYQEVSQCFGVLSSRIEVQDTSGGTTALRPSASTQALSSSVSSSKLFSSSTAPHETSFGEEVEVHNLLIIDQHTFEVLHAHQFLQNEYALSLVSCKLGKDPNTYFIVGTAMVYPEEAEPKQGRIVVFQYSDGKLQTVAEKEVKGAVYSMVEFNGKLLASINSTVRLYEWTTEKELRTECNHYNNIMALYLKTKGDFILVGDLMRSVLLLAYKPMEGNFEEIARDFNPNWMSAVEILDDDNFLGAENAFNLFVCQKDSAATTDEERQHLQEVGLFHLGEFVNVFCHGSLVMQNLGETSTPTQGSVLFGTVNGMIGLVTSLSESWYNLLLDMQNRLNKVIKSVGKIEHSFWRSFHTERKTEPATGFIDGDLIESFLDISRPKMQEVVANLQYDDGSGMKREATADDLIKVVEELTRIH
experimentSummary: Prolabel quantification of IKZF1 protein levels in 293GT cells
Format: cell-based
experimentalConditions: Prolabel assay, read-out: IKZF1 EC50

Worked cases, DC50 given:
> print(dat)
                                   compound                              testedsystem  valuemeasured
1  O=C1CCC(N2Cc3cc(C4CCN(Cc5ccc(F)cc5)CC4)ccc3C2=O)C(=O)N1 (stereo not shown)  IKZF1 (Homo sapiens, UniProt Q13422+Q96SW2)        > 50 µM
2  CC(C)c1ccc(CN2CCC(c3ccc4c(c3)CN(C3CCC(=O)NC3=O)C4=O)CC2)cc1 (stereo not shown)  IKZF1 (Homo sapiens, UniProt Q13422+Q96SW2)        > 30 µM
3  CCOc1ccc(CN2CCC(c3ccc4c(c3)CN(C3CCC(=O)NC3=O)C4=O)CC2)cc1 (stereo not shown)  IKZF1 (Homo sapiens, UniProt Q13422+Q96SW2)        > 30 µM
4  O=C1CCC(N2Cc3cc(C4CCN(Cc5ccc(-c6ccccc6)cc5)CC4)ccc3C2=O)C(=O)N1 (stereo not shown)  IKZF1 (Homo sapiens, UniProt Q13422+Q96SW2)        > 50 µM
5  O=C1CCC(N2Cc3cc(C4CCN(Cc5ccc(C6CCCC6)cc5)CC4)ccc3C2=O)C(=O)N1 (stereo not shown)  IKZF1 (Homo sapiens, UniProt Q13422+Q96SW2)        > 30 µM

Entry under review: CC(C)Oc1cccc(CN2CCC(c3ccc4c(c3)CN(C3CCC(=O)NC3=O)C4=O)CC2)n1 (stereo not shown) . Reported DC50?
0.32 µM

What do you get for O=C1CCC(N2Cc3cc(C4CCN(Cc5cn(C6CCC6)nn5)CC4)ccc3C2=O)C(=O)N1 (stereo not shown) ?
> 30 µM
